These measurements were taken from ChEMBL document CHEMBL3351445.

- Test Target: Cytochrome P450 11B2, mitochondrial (Homo sapiens, UniProt P19099)
- Sequence (P19099 whole entry): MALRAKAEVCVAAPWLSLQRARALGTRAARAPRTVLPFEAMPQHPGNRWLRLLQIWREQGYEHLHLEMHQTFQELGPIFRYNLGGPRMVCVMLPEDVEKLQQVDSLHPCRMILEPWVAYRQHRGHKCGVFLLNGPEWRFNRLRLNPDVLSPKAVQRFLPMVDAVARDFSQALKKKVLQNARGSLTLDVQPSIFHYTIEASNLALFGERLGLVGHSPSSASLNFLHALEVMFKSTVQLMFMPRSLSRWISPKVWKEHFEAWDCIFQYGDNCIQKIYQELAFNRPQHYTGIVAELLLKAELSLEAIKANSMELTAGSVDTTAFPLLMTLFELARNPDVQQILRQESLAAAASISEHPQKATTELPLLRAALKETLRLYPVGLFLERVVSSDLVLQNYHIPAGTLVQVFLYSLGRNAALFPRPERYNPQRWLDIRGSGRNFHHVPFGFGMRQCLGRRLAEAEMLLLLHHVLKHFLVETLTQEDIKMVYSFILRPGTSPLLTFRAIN
Measured Endpoint: pIC50
// scale note: pIC50 = -log10(conc_M); give the bare number

{"Smiles Repr": "COc1cccc(S(=O)(=O)N(C)c2ccc(-c3cccnc3)cc2)c1", "Endpoint Value": 6.62}
{"Smiles Repr": "COc1cccc(S(=O)(=O)Nc2ccc(-c3cccnc3)cc2)c1", "Endpoint Value": 6.07}
{"Smiles Repr": "O=S(=O)(c1ccccc1)N1CCCc2cc(-c3cccnc3)ccc21", "Endpoint Value": 6.53}
{"Smiles Repr": "O=S(=O)(c1ccc(Cl)cc1)N1CCCc2cc(-c3cccnc3)ccc21", "Endpoint Value": 6.33}
{"Smiles Repr": "O=S(=O)(c1cccc(F)c1)N1CCc2cc(-c3cccnc3)ccc21", "Endpoint Value": 6.07}
{"Smiles Repr": "COc1ccc(S(=O)(=O)N2CCCc3cc(-c4cccnc4)ccc32)cc1", "Endpoint Value": 6.28}
{"Smiles Repr": "N#Cc1cccc(S(=O)(=O)N2CCCc3cc(-c4cccnc4)ccc32)c1", "Endpoint Value": 6.37}

Query :: Query: pIC50; subject: "COc1cccc(S(=O)(=O)N2CCCc3cc(Cc4cccnc4)ccc32)c1"
Result :: 8.10

###

- Test Target: Cytochrome P450 11B1, mitochondrial (Homo sapiens, UniProt P15538)
pIC50: −log10 of the molar value.
Label class 1 for high-side pIC50 (at or above 7) and class 0 for low-side pIC50 (below it).

Recorded results for 5 compounds are shown here.
{"Smiles Repr": "O=S(=O)(c1cccc(OC(F)(F)F)c1)N1CCCc2cc(-c3cccnc3)ccc21", "Qualitative Label": "class 0"}
{"Smiles Repr": "COc1cccc(S(=O)(=O)N2CCCc3cc(Cc4ccncc4)ccc32)c1", "Qualitative Label": "class 1"}
{"Smiles Repr": "O=S(=O)(c1ccc2ccccc2c1)N1CCCc2cc(-c3cccnc3)ccc21", "Qualitative Label": "class 0"}
{"Smiles Repr": "O=S(=O)(c1ccc(OC(F)(F)F)cc1)N1CCCc2cc(-c3cccnc3)ccc21", "Qualitative Label": "class 0"}
{"Smiles Repr": "Cc1ccc(S(=O)(=O)N2CCCc3cc(-c4cccnc4)ccc32)cc1", "Qualitative Label": "class 0"}

Query :: Confirm if pIC50 reported for the compound "Cc1cccc(S(=O)(=O)N2CCCc3cc(-c4cccnc4)ccc32)c1" is 7 or above.
Result :: class 1

###

The following compounds are listed with their measured IC50 values.
- Test Target: Cytochrome P450 11B1, mitochondrial (Homo sapiens, UniProt P15538)
- Sequence (P15538 whole entry): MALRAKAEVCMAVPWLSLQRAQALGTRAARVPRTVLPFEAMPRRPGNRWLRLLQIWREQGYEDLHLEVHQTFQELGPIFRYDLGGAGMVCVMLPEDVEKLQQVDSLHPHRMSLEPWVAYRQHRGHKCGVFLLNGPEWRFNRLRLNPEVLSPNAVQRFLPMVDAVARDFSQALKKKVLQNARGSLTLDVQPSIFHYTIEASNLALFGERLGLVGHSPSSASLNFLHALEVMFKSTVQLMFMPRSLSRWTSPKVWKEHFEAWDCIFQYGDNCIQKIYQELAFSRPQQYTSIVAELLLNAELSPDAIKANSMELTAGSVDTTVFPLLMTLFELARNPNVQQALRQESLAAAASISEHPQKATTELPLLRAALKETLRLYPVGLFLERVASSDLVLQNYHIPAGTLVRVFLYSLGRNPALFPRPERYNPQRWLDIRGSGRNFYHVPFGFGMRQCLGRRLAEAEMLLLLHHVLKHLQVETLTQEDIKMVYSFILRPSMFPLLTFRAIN

{"Smiles Repr": "O=S(=O)(c1ccccc1)N1CCCc2cc(-c3cccnc3)ccc21", "IC50": "65 nM"}

Query :: Recorded IC50 of "O=S(=O)(c1cccc(F)c1)N1CCCc2cc(-c3cccnc3)ccc21" , please.
Result :: 71 nM

Query :: Data request, read-out IC50, for "COc1cccc(S(=O)(=O)N(Cc2ccccc2)c2ccc(-c3cccnc3)cc2)c1"
Result :: 2000 nM

Query :: // IC50 lookup, key: "COc1cccc(S(=O)(=O)N2CCc3cc(-c4ccncc4)cnc32)c1"
Result :: 1750 nM

Query :: For the compound shown here, "O=S(=O)(c1ccc(F)cc1)N1CCCc2cc(-c3cccnc3)ccc21" , give the reported IC50.
Result :: 49 nM

Query :: Name the reported IC50 value associated with the compound "COc1cccc(S(=O)(=O)Nc2ccc(-c3cccnc3)cc2)c1"
Result :: 188 nM

Query :: Tell me the measured IC50 of "N#Cc1ccc(S(=O)(=O)N2CCCc3cc(-c4cccnc4)ccc32)cc1" , please.
Result :: 114 nM

Query :: What measured IC50 goes with "O=S(=O)(c1cccc(F)c1)N1CCc2cc(-c3cccnc3)ccc21" ?
Result :: 327 nM

Query :: Given "COc1ccc(S(=O)(=O)N2CCCc3cc(-c4cccnc4)ccc32)cc1" , state its recorded IC50.
Result :: 334 nM

Query :: Return reported IC50; argument: "N#Cc1cccc(S(=O)(=O)N2CCCc3cc(-c4cccnc4)ccc32)c1"
Result :: 65 nM

Query :: Returns the measured IC50 for the input compound. Input: "O=S(=O)(C1CCCCC1)N1CCCc2cc(-c3cccnc3)ccc21"
Result :: 1170 nM
